B1: Twister Ribozyme (parent)
chain: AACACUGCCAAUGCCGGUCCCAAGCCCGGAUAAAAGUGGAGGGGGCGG

- Variants of: B1
- procedure text: self-cleavage, relative activity (ratio to wild type); higher = more cleavage; co-transcriptional
// reported self-cleavage for each item listed

residue change: G47U
self-cleavage: 0.965
--
residue change: A34G C46A
self-cleavage: 0.736
--
residue change: C3U G42U
self-cleavage: 0.0877
--
residue change: U37C G43A
self-cleavage: 0.142
--
residue change: A22C G44A
self-cleavage: 0.914
--
residue change: C8U C19A
self-cleavage: 0.0797
--
residue change: C15G C46A
self-cleavage: 0.0745
--
residue change: U6C G13C
self-cleavage: 0.107
--
residue change: G39C G44U
self-cleavage: 0.169
--
residue change: A10G C14G
self-cleavage: 0.0768
--
residue change: U12A G44A
self-cleavage: 1.04
